# ASSAYED_SYSTEM: T1, human serum albumin (human, UniProt P02768 25-609)
# T1 construct: mature; Bought purified serum albumin; also called HSA; Human albumin
# ASSAY_NOTES: SPR, Fab captured; albumin taken as HSA;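 also: antibody held on a capture surface, albumin injected for 3 min association then dissociation followed, signals corrected using a blank reference flow cell and buffer-only injections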
Below, each entry is listed alongside its reported kon.
Answer in M⁻¹ s⁻¹, number only, no unit symbol.

BINDER	UNITS_OF_MEASURE	kon
CA645 gL4gH27 Fab (Fab, V domains shown, Fab: human gamma1 CH1, human kappa (Km3); Kabat numbering) VH: EVQLLESGGGLVQPGGSLRLSCAVSGIDLSNYAINWVRQAPGKGLEWIGIIWGSGTTFYATWAKGRFTISRDNSKNTVYLQMNSLRAEDTAVYYCARTVPGYSTAPYFDLWGQGTLVTVSS VL: DIQMTQSPSSVSASVGDRVTITCQSSPSVWSNFLSWYQQKPGKAPKLLIYEASKLTSGVPSRFSGSGSGTDFTLTISSLQPEDFATYYCGGGYSSISDTTFGGGTKVEIK	M⁻¹ s⁻¹	48300

What measured kon goes with CA645 gL4gH42 Fab (Fab, V domains shown, Fab: human gamma1 CH1, human kappa (Km3); Kabat numbering) VH: EVQLLESGGGLVQPGGSLRLSCAVSGIDLSNYAINWVRQAPGKGLEWIGIIWASGTTFYATWAKGRFTISRDNSKNTVYLQMNSLRAEDTAVYYCARTVPQYSTAPYFDLWGQGTLVTVSS VL: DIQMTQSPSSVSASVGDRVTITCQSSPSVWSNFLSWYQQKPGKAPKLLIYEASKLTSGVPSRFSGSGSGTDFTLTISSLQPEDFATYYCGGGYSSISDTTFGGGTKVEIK ? 53100

Look up kon for this binder: CA645 gL14gH5 Fab (Fab, V domains shown, Fab: human gamma1 CH1, human kappa (Km3); Kabat numbering) VH: EVQLLESGGGLVQPGGSLRLSCAVSGIDLSNYAINWVRQAPGKGLEWIGIIWASGTTFYATWAKGRFTISRDNSKNTVYLQMNSLRAEDTAVYYCARTVPGYSTAPYFDLWGQGTLVTVSS VL: DIQMTQSPSSVSASVGDRVTITCQSSPLVWSNFLSWYQQKPGKAPKLLIYEASKLTSGVPSRFSGSGSGTDFTLTISSLQPEDFATYYCGGGYSSISDTTFGGGTKVEIK 57700
